target: BTK (Homo sapiens (Human), UniProt Q06187); assay: In vitro BTK kinase assay: BTK-POLYGAT-LS ASSAY
Sequence (Q06187 whole entry): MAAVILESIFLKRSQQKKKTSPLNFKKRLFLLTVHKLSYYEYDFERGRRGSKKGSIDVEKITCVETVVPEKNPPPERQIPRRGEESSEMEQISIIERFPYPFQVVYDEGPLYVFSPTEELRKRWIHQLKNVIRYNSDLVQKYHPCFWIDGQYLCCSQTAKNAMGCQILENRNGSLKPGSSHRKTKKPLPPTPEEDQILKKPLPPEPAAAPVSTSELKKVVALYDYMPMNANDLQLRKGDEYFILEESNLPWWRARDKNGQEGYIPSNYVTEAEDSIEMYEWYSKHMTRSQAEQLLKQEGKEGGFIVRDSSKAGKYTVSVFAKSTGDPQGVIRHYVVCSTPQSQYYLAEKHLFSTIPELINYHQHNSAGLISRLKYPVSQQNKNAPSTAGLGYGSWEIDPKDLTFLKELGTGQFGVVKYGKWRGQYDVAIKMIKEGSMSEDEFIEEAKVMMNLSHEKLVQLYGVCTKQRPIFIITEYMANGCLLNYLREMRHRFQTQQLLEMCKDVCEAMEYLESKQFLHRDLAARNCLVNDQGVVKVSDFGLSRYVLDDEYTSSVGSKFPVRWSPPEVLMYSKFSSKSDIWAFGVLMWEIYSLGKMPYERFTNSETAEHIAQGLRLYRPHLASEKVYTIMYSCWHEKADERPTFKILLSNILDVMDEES
Hi there, I'd appreciate the recorded IC50 for every entry that follows.

// query In one line, give reported IC50 of the entry CC(C)(C)CNC(=O)Nc1cccc(C2CCCN(c3ncnc4[nH]ccc34)C2)c1 (centres unmarked) .
// result 1 to 10 µM

// query Tell me IC50 reported for Cc1c(N)ncnc1N1CCCC(c2cccc(NC(=O)Nc3ccccc3)c2)C1 (centres unmarked)
// result 1 to 10 µM

// query Return the recorded IC50 value; entry: N[C@H]1CCN(c2ccccc2NC(=O)Nc2cccc(C3CCCN(c4ncnc5[nH]ccc45)C3)c2)C1 (some centres unmarked)
// result 0.1 to 0.999 µM

// query Input O=C1C(Nc2ccccc2)c2ccccc2N1[C@@H]1CCCN(c2ncnc3[nH]ccc23)C1 (some centres unmarked) , output reported IC50.
// result 1 to 10 µM

// query Provide only the value of recorded IC50 for O=C(Nc1cc(C2CCCN(c3ncnc4[nH]ccc34)C2)ccc1OC(F)(F)F)c1ccccc1 (centres unmarked)
// result 0.1 to 0.999 µM

// query Answer with reported IC50 of CCc1cccc(CC)c1NC(=O)Nc1cccc(C2CCCN(c3ncnc4[nH]ccc34)C2)c1 (centres unmarked)
// result 0.1 to 0.999 µM

// query Provide IC50 value for the following molecule: Nc1cc(N2CCCC(c3cccc(NC(=O)Nc4ccccc4)c3)C2)ncn1 (centres unmarked)
// result 1 to 10 µM

// query For the molecule O=C(Nc1ccccc1)N[C@@H]1CCCN(C2CCCN(c3ncnc4[nH]ccc34)C2)C1 (some centres unmarked) , give its measured IC50 value.
// result 1 to 10 µM

The values you see were collected from patent US9790229B2.
